Here the recorded IC50 is given for each entry.
Study target: AXL (human catalytic domain) (Homo sapiens, UniProt P30530)
Construct: purchased Upstate Ltd. 14-512
Test name: AXL (human catalytic domain) Enzyme Activity Assay (IMAP fluorescence polarisation)
Assay type: biochemical
Settings: further data set (WW-001 through WW-169, XX-001 through XX-469, YY-001 through YY-016, ZZ-001 through ZZ-003); 150 μM ATP

| Compound | Study target | IC50 |
| --- | --- | --- |
| NC(=O)c1cccc(-c2cccc3nc(NC(=O)C4CC4)nn23)c1 | AXL (human catalytic domain) (Homo sapiens, UniProt P30530) | 1000 to 10000 nM |
| CC(C)Oc1cccc(-c2cccc3nc(NC(=O)C4CC4)nn23)c1 | AXL (human catalytic domain) (Homo sapiens, UniProt P30530) | 1000 to 10000 nM |
| COc1ccc(-c2cccc3nc(Nc4ccc(OCCNCc5ccccn5)cc4)nn23)cc1 | AXL (human catalytic domain) (Homo sapiens, UniProt P30530) | 100 to 1000 nM |
| O=C(Nc1nc2cccc(-c3ccc4c(c3)OCCO4)n2n1)C1CC1 | AXL (human catalytic domain) (Homo sapiens, UniProt P30530) | 100 to 1000 nM |
| OCCn1cc(-c2cccc3nc(Nc4ccc(OCCN5CCCC5)cc4)nn23)cn1 | AXL (human catalytic domain) (Homo sapiens, UniProt P30530) | 100 to 1000 nM |
| c1cc(OCC2CCCO2)cc(-c2cccc3nc(Nc4ccc(OCCN5CCCC5)cc4)nn23)c1 (stereo not shown) | AXL (human catalytic domain) (Homo sapiens, UniProt P30530) | 100 to 1000 nM |
| c1cc(-c2cnn(CCSc3nccs3)c2)n2nc(Nc3ccc(OCCN4CCCC4)cc3)nc2c1 | AXL (human catalytic domain) (Homo sapiens, UniProt P30530) | 100 to 1000 nM |

###

Here the recorded IC50 is given for each entry.
Study target: AXL (human catalytic domain) (Homo sapiens, UniProt P30530)
Construct: purchased Upstate Ltd. 14-512
Sequence (P30530 473-894): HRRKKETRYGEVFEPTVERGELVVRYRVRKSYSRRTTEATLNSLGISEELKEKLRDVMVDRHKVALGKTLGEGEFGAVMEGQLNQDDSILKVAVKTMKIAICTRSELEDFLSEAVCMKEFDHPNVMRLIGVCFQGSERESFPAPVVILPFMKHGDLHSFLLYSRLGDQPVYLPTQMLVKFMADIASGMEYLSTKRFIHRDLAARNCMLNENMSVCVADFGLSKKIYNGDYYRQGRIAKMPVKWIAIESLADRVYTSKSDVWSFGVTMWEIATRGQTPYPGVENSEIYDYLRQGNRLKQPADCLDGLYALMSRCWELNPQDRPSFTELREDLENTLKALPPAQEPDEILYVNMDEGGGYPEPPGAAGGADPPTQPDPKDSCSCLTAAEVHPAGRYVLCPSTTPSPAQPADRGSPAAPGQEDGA
Test name: AXL (human catalytic domain) Enzyme Activity Assay (IMAP fluorescence polarisation)
Assay type: biochemical
Settings: first data set; recombinant AXL isoform 1 aa473-894, 150 μM ATP

| Compound | IC50 |
| --- | --- |
| COc1ccc(-c2cccc3nc(Nc4ccc(OCCNCc5ccc(N)cc5)cc4)nn23)cc1 [XX-034] | < 1000 nM |
| CC(C)(C)OC(=O)Nc1ccc(-c2cccc3nc(NC(=O)C4CC4)nn23)cc1 [WW-110] | 1000 to 10000 nM |
| O=C(Nc1nc2cccc(-c3cn[nH]c3)n2n1)C1CC1 [WW-060] | 1000 to 10000 nM |
| NCc1ccc(-c2cccc3nc(NC(=O)C4CC4)nn23)cc1 [WW-050] | 1000 to 10000 nM |
| CN(C(=O)OC(C)(C)C)c1ccc(-c2cccc3nc(NC(=O)C4CC4)nn23)cc1 [WW-119] | 1000 to 10000 nM |
| COc1cccc(Nc2cccc3nc(NC(=O)C4CC4)nn23)c1 [WW-160] | 1000 to 10000 nM |
| O=C(Nc1nc2cccc(-c3cc[nH]c3)n2n1)C1CC1 [WW-149] | 1000 to 10000 nM |
| CN(C)CCNC(=O)c1ccc(Nc2nc3cccc(-c4ccc5occc5c4)n3n2)cc1 [XX-084] | < 1000 nM |
| CC(C)Cn1cc(-c2cccc3nc(NC(=O)C4CC4)nn23)cn1 [WW-108] | 1000 to 10000 nM |
| COc1ccc(-c2cccc3nc(Nc4ccc(OCCNCc5cccnc5)cc4)nn23)cc1 [XX-033] | < 1000 nM |
| COc1ccc(-c2cccc3nc(Nc4ccc(OCCN(C)C)cc4)nn23)cc1 [XX-006] | < 1000 nM |
| CSc1ccc(-c2cccc3nc(NC(=O)C4CC4)nn23)cc1 [WW-136] | 1000 to 10000 nM |

###

Study target: AXL (human catalytic domain) (Homo sapiens)
Construct: purchased Upstate Ltd. 14-512
Sequence (P30530 473-894): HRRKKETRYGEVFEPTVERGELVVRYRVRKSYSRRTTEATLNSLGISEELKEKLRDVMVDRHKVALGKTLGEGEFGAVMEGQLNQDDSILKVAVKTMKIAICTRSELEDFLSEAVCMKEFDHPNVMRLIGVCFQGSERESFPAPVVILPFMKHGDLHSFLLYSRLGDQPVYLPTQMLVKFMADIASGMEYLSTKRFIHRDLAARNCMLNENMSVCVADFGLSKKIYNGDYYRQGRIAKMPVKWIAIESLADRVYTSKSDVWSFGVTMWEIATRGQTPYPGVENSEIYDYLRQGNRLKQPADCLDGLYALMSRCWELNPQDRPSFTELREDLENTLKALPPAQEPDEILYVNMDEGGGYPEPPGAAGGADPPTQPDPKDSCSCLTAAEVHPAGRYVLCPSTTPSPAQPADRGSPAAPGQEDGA
Test name: AXL (human catalytic domain) Enzyme Activity Assay (IMAP fluorescence polarisation)
Format: biochemical
Settings: further data set (WW-001 through WW-169, XX-001 through XX-469, YY-001 through YY-016, ZZ-001 through ZZ-003); 150 μM ATP
Here the recorded IC50 is given for each entry.

| Compound | Study target | IC50 |
| --- | --- | --- |
| Cc1ccc(-c2cccc(-c3cccc4nc(Nc5ccc(OCCN6CCCC6)cc5)nn34)c2)cc1 [XX-465] | AXL (human catalytic domain) (Homo sapiens) | 1000 to 10000 nM |
| c1cc(-c2ccc3cc[nH]c3c2)n2nc(Nc3ccc(OCCCN4CCCCC4)cc3)nc2c1 [XX-347] | AXL (human catalytic domain) (Homo sapiens) | 100 to 1000 nM |
| CN(C)CCOc1cc(Nc2nc3cccc(-c4ccc5c(c4)OCCO5)n3n2)ccn1 [XX-079] | AXL (human catalytic domain) (Homo sapiens) | ≤ 100 nM |
| c1ccc(-c2cc(CNc3cccc(-c4cccc5nc(Nc6ccc(OCCN7CCCC7)cc6)nn45)c3)no2)cc1 [XX-445] | AXL (human catalytic domain) (Homo sapiens) | 100 to 1000 nM |
| c1cc(-c2ccc3c(c2)OCCCO3)n2nc(Nc3ccc(OCCN4CCCC4)cc3)nc2c1 [XX-209] | AXL (human catalytic domain) (Homo sapiens) | 100 to 1000 nM |
| CN1CCOc2cc(-c3cccc4nc(NC(=O)C5CC5)nn34)ccc21 [WW-104] | AXL (human catalytic domain) (Homo sapiens) | 100 to 1000 nM |
| COc1ccc(-c2nccc3nc(Nc4ccc(C(=O)NCCN(C)C)cc4)nn23)cc1 [YY-004] | AXL (human catalytic domain) (Homo sapiens) | ≤ 100 nM |

###

Here the recorded pIC50 is given for each entry.
Study target: AXL (human catalytic domain) (Homo sapiens)
Construct: purchased Upstate Ltd. 14-512
Test name: AXL (human catalytic domain) Enzyme Activity Assay (IMAP fluorescence polarisation)
Assay type: biochemical
Settings: further data set (WW-001 through WW-169, XX-001 through XX-469, YY-001 through YY-016, ZZ-001 through ZZ-003); 150 μM ATP
pIC50: −log10 of the molar value.

| Compound | pIC50 |
| --- | --- |
| O=C(Nc1nc2cccc(Nc3ccccc3Cl)n2n1)C1CC1 | 5.00 to 6.00 |
| COc1ncccc1-c1cccc2nc(Nc3ccc(OCCN4CCCC4)cc3)nn12 | 5.00 to 6.00 |
| NCCNS(=O)(=O)c1ccc(Nc2nc3cccc(-c4ccc5c(c4)OCCO5)n3n2)cc1 | 6.00 to 7.00 |
| c1cc2nc(Nc3ccc(OCCN4CCCC4)cc3)nn2c(-c2ccc3c(c2)OCCO3)n1 | 6.00 to 7.00 |
| COc1ccc(CNc2cccc(-c3cccc4nc(Nc5ccc(OCCN6CCCC6)cc5)nn34)c2)cc1 | 6.00 to 7.00 |
| COc1ccc(-c2cccc3nc(Nc4ccc5c(c4)OCCCO5)nn23)cc1 | 5.00 to 6.00 |
| CN(C)C/C=C/c1ccc(Nc2nc3cccc(-c4ccc5c(c4)OCCO5)n3n2)cc1 | ≥ 7.00 |
| COc1ccc(-c2cccc3nc(Nc4ccc(OCCNCc5cccnc5)cc4)nn23)cc1 | 6.00 to 7.00 |
| COc1ccc(NC(=O)Nc2cccc(-c3cccc4nc(Nc5ccc(OCCN6CCCC6)cc5)nn34)c2)cc1 | 6.00 to 7.00 |
| CC(Nc1cccc2nc(NC(=O)C3CC3)nn12)c1ccccc1 (stereo not drawn) | 5.00 to 6.00 |
| COc1ccc(-c2cccc3nc(Nc4ccc(OCCN5CCCC5)c(OC)c4)nn23)cc1 | ≥ 7.00 |
| CN(C)c1cccc(-c2cccc3nc(NC(=O)C4CC4)nn23)c1 | 5.00 to 6.00 |
| COc1ccc(-c2cccc3nc(Nc4ccc(N(C)C)cc4)nn23)cc1 | 5.00 to 6.00 |
| C[C@@H](N)COc1ccc(Nc2nc3cccc(-c4ccc5c(c4)OCCO5)n3n2)cc1 | 6.00 to 7.00 |
| O=C(Nc1nc2cccc(-c3ccc(O)c(F)c3)n2n1)C1CC1 | 6.00 to 7.00 |
